system: MDR1-MDCKII cells; assay: MDR1-MDCK II cell permeation assay (bi-directional permeability, P-gp efflux); format: in vitro ADME

Compound	P-gp substrate
O=C(NC1CCCOc2c1nn(-c1ccccc1Cl)c2-c1ccc(Cl)cc1)c1cccnc1 (stereo not shown)	No
CCOC(=O)N1CCC(C(=O)NC2CCCOc3c2nn(-c2ccccc2Cl)c3-c2ccc(Cl)cc2)CC1 (stereo not shown)	No
CC(C)(Oc1ccc(C(=O)c2ccc(Cl)cc2)cc1)C(=O)NC1CCCOc2c1nn(-c1ccccc1Cl)c2-c1ccc(Cl)cc1 (stereo not shown)	No

---

test system: HepG2 Cells; test: Cell Viability Assay in HepG2 Cells at 72 h; format: cell-based, human; conditions: Homo sapiens, HepG2, 72 h; read-out: Relative IC50
pIC50: −log10 of the molar value.
Reported pIC50 values for a set of compounds

See these solved cases before continuing.
Compound	Readout name	Result
Cc1ccc(C)c(OCCCC(C)(C)C(=O)NC2CCCOc3c2nn(-c2ccccc2Cl)c3-c2ccc(Cl)cc2)c1 (stereo not drawn)	pIC50	< 4.00
O=C(NC1CCCOc2c1nn(-c1ccccc1Cl)c2-c1ccc(Cl)cc1)C1CCN(S(=O)(=O)c2ccc(Cl)cc2)CC1 (stereo not drawn)	pIC50	< 4.00

Please turn your attention to the following entry.
pIC50 reading for Cc1ccc(S(=O)(=O)NC2CCCOc3c2nn(-c2ccccc2Cl)c3-c2ccc(Cl)cc2)cc1 (stereo not drawn) : 4.75

---

target: CB1 receptor (Mus musculus (Mouse)); assay: CB1 receptor radioligand binding assay, [3H]CP-55,940 displacement, mouse brain membranes; settings: mouse (m) CB1 receptor; read-out: CB1R Ki (nM) (m)
Sequence (P47746 whole entry): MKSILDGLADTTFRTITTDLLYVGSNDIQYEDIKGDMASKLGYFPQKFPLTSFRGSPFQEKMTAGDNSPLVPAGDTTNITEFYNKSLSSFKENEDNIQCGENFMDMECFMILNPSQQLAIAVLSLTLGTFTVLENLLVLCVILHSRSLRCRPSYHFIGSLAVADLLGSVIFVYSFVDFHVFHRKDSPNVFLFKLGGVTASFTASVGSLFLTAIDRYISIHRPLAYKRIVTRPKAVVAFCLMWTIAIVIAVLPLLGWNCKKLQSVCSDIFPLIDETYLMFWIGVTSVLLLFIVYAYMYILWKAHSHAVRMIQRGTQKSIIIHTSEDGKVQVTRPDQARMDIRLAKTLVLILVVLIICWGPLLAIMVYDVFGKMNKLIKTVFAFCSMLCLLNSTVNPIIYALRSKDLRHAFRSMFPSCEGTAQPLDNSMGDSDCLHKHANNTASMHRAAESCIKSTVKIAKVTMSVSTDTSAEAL
Readout name: Ki (nM)
State the answer as a number, implicitly in nM.

Below, 3 compounds whose answers are already recorded.
Compound	Unit symbol	Numeric readout
O=C(NC1CCCOc2c1nn(-c1ccccc1Cl)c2-c1ccc(Cl)cc1)c1ccncn1 (centres unmarked)	nM	65.6
O=C(NC1CCCOc2c1nn(-c1ccccc1Cl)c2-c1ccc(Cl)cc1)[C@@H]1CCCN1 (some centres unmarked)	nM	1400
Cc1ccc(C)c(OCCCC(C)(C)C(=O)NC2CCCOc3c2nn(-c2ccccc2Cl)c3-c2ccc(Cl)cc2)c1 (centres unmarked)	nM	1.4

// field: Ki; key: CC(C)(Oc1ccc(C(=O)c2ccc(Cl)cc2)cc1)C(=O)NC1CCCOc2c1nn(-c1ccccc1Cl)c2-c1ccc(Cl)cc1 (centres unmarked) ; value = 56.7

# Ki (compound: CS(=O)(=O)N1CCC(C(=O)NC2CCCOc3c2nn(-c2ccccc2Cl)c3-c2ccc(Cl)cc2)CC1 (centres unmarked) ) is 18

Item: CNCC(=O)NC1CCCOc2c1nn(-c1ccccc1Cl)c2-c1ccc(Cl)cc1 (centres unmarked) | Ki: 922

# Ki of CNC(=O)NC1CCCOc2c1nn(-c1ccccc1Cl)c2-c1ccc(Cl)cc1 (centres unmarked) = 1130

Ki recorded for this compound, O=C(NC1CCCOc2c1nn(-c1ccccc1Cl)c2-c1ccc(Cl)cc1)c1ccccn1 (centres unmarked) , is 64.5
